# TARGET_DESC: hGal-3 (UniProt P17931 2-250)
# Sequence (P17931 2-250): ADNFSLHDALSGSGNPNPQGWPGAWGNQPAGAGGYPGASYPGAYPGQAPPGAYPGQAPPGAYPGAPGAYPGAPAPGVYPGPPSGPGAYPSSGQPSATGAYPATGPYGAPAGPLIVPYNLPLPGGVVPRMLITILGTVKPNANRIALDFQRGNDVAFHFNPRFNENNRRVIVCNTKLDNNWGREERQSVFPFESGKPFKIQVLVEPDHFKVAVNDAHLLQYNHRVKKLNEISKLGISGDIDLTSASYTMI
# EXPERIMENT_DESCRIPTION: SPR
RECORDED_METRIC: pKd
Give bare numbers, as −log10 of the molar value.

Consider the following illustrative entries.
[
  {
    "BINDER": "23H9.2E4 (antibody, V domains shown) VH: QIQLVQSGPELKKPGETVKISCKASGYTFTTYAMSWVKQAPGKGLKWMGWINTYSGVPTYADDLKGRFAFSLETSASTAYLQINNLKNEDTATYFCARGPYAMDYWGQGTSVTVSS VL: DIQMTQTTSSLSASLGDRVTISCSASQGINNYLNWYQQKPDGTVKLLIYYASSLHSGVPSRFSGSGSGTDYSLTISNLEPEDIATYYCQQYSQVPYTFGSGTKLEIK",
    "pKd": 8.37
  },
  {
    "BINDER": "IMT-006 (antibody, V domains shown) VH: QVQLVQSGAEVKKPGASVKVSCKASGYSFTNYYMHWVRQAPGQRLEWMGWIYPGSGNTNYNEKFQGRVTITADTSASTAYMELSSLRSEDTAVYYCSTAPGGFDVWGQGTTVTVSS VL: DIVMTQTPLSLSVTPGQPASISCKSSKSLLHSDGITYLYWYLQKPGQSPQLLIYRMSNLASGVPDRFSGSGSGTDFTLKISRVEAEDVGVYYCAQMLEFPLTFGQGTKLEIKR",
    "pKd": 7.78
  },
  {
    "BINDER": "15G7.2A7 (antibody, V domains shown) VH: EVQLQQSGPELVKPGASVKISCKASGYTFTDYYMNWVKQSHGKSLEWIGDINPNNGGTNYNQKFKGKATLTVDKSSSTAYMELRSLTSEDSAVYYCTSGYGFPYWGQGTLVTVSA VL: DIQMNQSPSSLSASLGDTISITCRASQNINIWLSWYQQKPGNIPQLLIYKASNLHTGVPSRFSGSGSGTDFTLTISSLQPEDIATYYCLQGQSYPLTFGAGTKLVMKR",
    "pKd": 7.95
  }
]

From here, focus on the item given below.
Ask: Tell me pKd reported for IMT-001 (antibody, V domains shown) VH: QVQLVQSGSELKKPGASVKVSCKASGYTFTNYGMNWVRQAPGQGLKWMGWINTNTGEPTYVEEFTGRFVFSLETSVSTAYLQISSLKAEDTAVYFCAPYDNFFAYWGQGTTVTVSS VL: DIVLTQSPLSLPVTPGEPASISCRSSKSLLYKDGKTYLNWFLQKPGQSPQLLIYLMSTHASGVPDRFSGSGSGTDFTLKISRVEAEDVGVYYCQQLVDYPLTFGGGTKLEIKR
Reply: 8.22
